Provide the reported Span of each item.
# Target System: T1, human G-protein-coupled receptor family C group 5 member D (GPRC5D) (human, UniProt Q9NZD1 1-345)
# T1 construct: whole, on cells; also called human GPRC5D protein
# T1 sequence (Q9NZD1 whole entry): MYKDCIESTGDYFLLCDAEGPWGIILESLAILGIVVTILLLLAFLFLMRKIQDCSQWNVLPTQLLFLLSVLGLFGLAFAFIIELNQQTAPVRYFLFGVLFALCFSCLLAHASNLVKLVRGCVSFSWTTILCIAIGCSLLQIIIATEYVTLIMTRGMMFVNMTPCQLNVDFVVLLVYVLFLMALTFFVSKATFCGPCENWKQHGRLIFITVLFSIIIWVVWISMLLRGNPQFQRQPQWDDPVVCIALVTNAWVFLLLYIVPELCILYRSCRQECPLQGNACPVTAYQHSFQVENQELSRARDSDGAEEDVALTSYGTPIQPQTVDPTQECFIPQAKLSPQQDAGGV
# Experiment Notes: FACS, CHO-K1/human GPRC5D
Write the value as a bare number.

Given the binder 58F9G10-XI (antibody, V domains shown, also called 58F9G10 (chimeric); 58-XI) VH: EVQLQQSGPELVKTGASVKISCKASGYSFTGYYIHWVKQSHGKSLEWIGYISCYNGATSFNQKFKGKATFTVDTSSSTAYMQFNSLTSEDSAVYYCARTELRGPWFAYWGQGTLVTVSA VL: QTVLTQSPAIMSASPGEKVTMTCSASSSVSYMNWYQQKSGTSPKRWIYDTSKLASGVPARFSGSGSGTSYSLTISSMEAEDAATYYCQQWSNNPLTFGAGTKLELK , what is its reported Span? 107000

Given the binder 37B9C4-XI (antibody, V domains shown, also called 37B9C4 (chimeric); 37-XI) VH: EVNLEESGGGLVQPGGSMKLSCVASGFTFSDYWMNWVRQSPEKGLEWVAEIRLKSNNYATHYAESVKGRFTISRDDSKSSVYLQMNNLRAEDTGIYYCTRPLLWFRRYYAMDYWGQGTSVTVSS VL: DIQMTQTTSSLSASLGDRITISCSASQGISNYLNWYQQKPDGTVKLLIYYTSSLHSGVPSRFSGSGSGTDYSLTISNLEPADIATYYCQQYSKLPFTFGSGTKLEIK , what is its reported Span? 113000

Given the binder 6G10D9-XI (antibody, V domains shown, also called 6G10D9 (chimeric); 6G1009-X1) VH: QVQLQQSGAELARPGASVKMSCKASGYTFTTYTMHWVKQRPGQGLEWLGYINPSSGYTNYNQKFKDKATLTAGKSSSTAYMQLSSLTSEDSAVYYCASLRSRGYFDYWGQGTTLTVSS VL: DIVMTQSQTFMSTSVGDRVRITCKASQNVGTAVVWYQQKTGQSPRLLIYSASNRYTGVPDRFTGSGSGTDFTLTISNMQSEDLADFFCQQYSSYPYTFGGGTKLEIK , what is its reported Span? 104000

Given the binder 58-H3L1 (antibody, V domains shown, humanized 58F9G10, VH v3 x VL v1) VH: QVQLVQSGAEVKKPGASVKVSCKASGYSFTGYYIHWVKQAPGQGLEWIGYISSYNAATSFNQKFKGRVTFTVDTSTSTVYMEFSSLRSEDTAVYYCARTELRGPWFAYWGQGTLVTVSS VL: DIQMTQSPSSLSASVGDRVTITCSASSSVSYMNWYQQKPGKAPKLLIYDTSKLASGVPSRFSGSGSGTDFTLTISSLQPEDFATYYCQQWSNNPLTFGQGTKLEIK , what is its reported Span? 104000
